# Tested on: SBK1
# conditions: concentration: 1 μM, replicates: in singlicate; n = 1;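 also: KINOMEscan kinase panel screen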
experimental_endpoint: %Inh (%)
Numeric answer only, unit % assumed.

[
  {
    "compound": "O=C(Nc1n[nH]c2nc(-c3nccs3)c(Br)cc12)C1CC1",
    "study_system": "SBK1",
    "%Inh (%)": 1
  }
]

# lookup: %Inh of "Cc1ccccc1-n1cnc2c(N)ncnc21"
0

# lookup: %Inh of "CS(=O)(=O)c1ccc(-c2c(-c3ncn[nH]3)sc(N3CCOCC3)c2C#N)cc1"
0

# lookup: %Inh of "Cc1c(O)cccc1Nc1ccnc2ccc(C(F)(F)F)cc12.Cl"
0

# lookup: %Inh of "Cc1cc(-c2ccc3c(c2)CC[C@@H](N[C@@H](C)c2ccccc2)C3)cnc1N.Cl"
17

# lookup: %Inh of "O=C(Nc1ccccc1)Nc1cccc(Oc2ccc3nccn3n2)c1"
0

# lookup: %Inh of "Cc1ccc(NC(=O)Nc2cccc(Cl)c2)cc1-c1ccc(C(=O)Nc2ccncc2)cc1"
26

# lookup: %Inh of COc1cccc(NC(=O)NC2CCN(c3ccnc(Nc4ccc(F)cc4)n3)C2)c1 (stereo not shown)
2

# lookup: %Inh of "COc1cc2nccc(Nc3ccc(NC(=O)c4ccc(C)cc4)c(O)c3)c2cc1OC.Cl"
10

# lookup: %Inh of "Cc1cccc(-c2nc(-c3ccc(S(C)(=O)=O)cc3)sc2-c2ccnc(NCCc3ccccc3)c2)c1"
0

# lookup: %Inh of "Cc1ccc(-c2cc(-c3c[nH]nc3-c3ccccn3)ccn2)cc1"
4

# lookup: %Inh of "Cl.NC(=O)c1cccc(Nc2nccc(Nc3ccc(Oc4cccc(Cl)c4)c(Cl)c3)n2)c1"
0

# lookup: %Inh of COc1ccc(CNC(=O)NC2CCN(c3ccnc(Nc4cc(OC)c(OC)c(OC)c4)n3)C2)cc1 (stereo not shown)
0

# lookup: %Inh of "Cc1cccc(-c2nc(C)cc(Nc3ccncc3)n2)n1"
4

# lookup: %Inh of "Cn1ccc2ncnc(Oc3ccc(Nc4nc5ccccc5[nH]4)cc3)c21"
0

# lookup: %Inh of "Cc1cc(N2Cc3ccccc3C2)nc(Nc2ccc(S(=O)(=O)N3CCOCC3)cc2)n1.Cl"
16

# lookup: %Inh of "Fc1cccc(COc2nnc(-c3ccc4c(c3)CCO4)o2)c1"
0

# lookup: %Inh of "Nc1nc(-c2nccs2)c(-c2ccnc3ccccc23)s1"
9

# lookup: %Inh of "O=c1cc(N2CCOCC2)nc2n(Cc3cccc(Cl)c3Cl)ccn12"
9

# lookup: %Inh of "CCn1c(-c2cccnc2O)nc2cnccc21"
0

* * *

# Test system: CDK5
# conditions: concentration: 1 μM, replicates: in singlicate; n = 1
Property: %Inh; scope: individual compounds
Numeric answer only, unit % assumed.

Worked cases, answers included:
[
  {
    "compound": "CC1=C(C(=O)Nc2cc3cn[nH]c3cc2F)C(c2ccc(C(F)(F)F)cc2)CC(=O)N1 (stereo not drawn)",
    "study_system": "CDK5",
    "%Inh / %": 0
  },
  {
    "compound": "Cc1cccc(-c2nc(Nc3ccc4[nH]ncc4c3)c3ccccc3n2)n1",
    "study_system": "CDK5",
    "%Inh / %": 3
  },
  {
    "compound": "Cl.O=C(Nc1cccc(-c2nn3ncccc3c2-c2ccnc(Nc3cccnc3)n2)c1)c1c(F)cccc1F",
    "study_system": "CDK5",
    "%Inh / %": 0
  }
]

# lookup: %Inh of "COc1ccc(C2=C(Nc3cccc(C(=O)O)c3)C(=O)NC2=O)cc1"
16

# lookup: %Inh of "Cc1cccc(-c2nc(C)cc(Nc3ccncc3)n2)n1"
0

# lookup: %Inh of "CC(C)(C)c1ccc(C(=O)Nc2cn3cc(-c4cccnc4)ccc3n2)cc1"
3

# lookup: %Inh of "Cc1ccccc1-n1cnc2c(N)ncnc21"
0

# lookup: %Inh of "CN1C(=O)C(Nc2ccc(Cl)c(C(=O)O)c2)=C(c2ccc(Cl)cc2)C1=O"
0

# lookup: %Inh of "O=C(Nc1n[nH]c2cc(-c3cccc(F)c3F)ccc12)C1CC1"
0

* * *

Property: %Inh; scope: individual compounds
# Test system: TYRO3
# conditions: concentration: 1 μM, replicates: in singlicate; n = 1
Numeric answer only, unit % assumed.

Worked cases, answers included:
[
  {
    "compound": "CN(C)CCN(C)C(=O)c1cc(-c2ccncc2)c(-c2ccc(Cl)c(O)c2)o1.Cl.Cl",
    "value": 0
  },
  {
    "compound": "NC(=O)c1nnc2ccccc2c1N",
    "value": 2
  },
  {
    "compound": "COC(=O)c1c(-c2ccccc2)c2cc(OC)ccc2c(=O)n1Cc1ccccc1",
    "value": 0
  },
  {
    "compound": "O=C(Nc1ccc2c(c1)OCO2)NC1CCN(c2ccnc(Nc3ccc(F)cc3)n2)C1 (stereo not shown)",
    "value": 0
  },
  {
    "compound": "Cc1ccc(C(=O)Nc2ccc(Nc3ccnc4cc(-c5ccccn5)ccc34)cc2O)cc1.Cl",
    "value": 0
  },
  {
    "compound": "Cc1ccc(NC(=O)Nc2cc(C(C)(C)C)nn2-c2ccccc2)cc1",
    "value": 7
  },
  {
    "compound": "COc1cccc(-c2cc(-c3c[nH]nc3-c3ccccn3)ccn2)c1",
    "value": 0
  },
  {
    "compound": "COC(=O)c1c(-c2ccccc2)c2cc(C(=O)O)ccc2c(=O)n1Cc1ccccc1",
    "value": 7
  },
  {
    "compound": "Fc1cccc(COc2nnc(-c3ccc4c(c3)CCO4)o2)c1",
    "value": 0
  },
  {
    "compound": "Cn1ccc2ncnc(Oc3ccc(NC(=O)Nc4ccccc4)cc3)c21",
    "value": 0
  }
]

# lookup: %Inh of "CC(C)(C)c1ccc(C(=O)Nc2cn3cc(-c4cccnc4)ccc3n2)cc1"
11

# lookup: %Inh of "Cl.c1ccc(-c2n[nH]cc2-c2ccnc(-c3ccc(CN4CCOCC4)cc3)c2)nc1"
0

# lookup: %Inh of "Cc1cccc(-c2nc(-c3ccc(S(C)(=O)=O)cc3)sc2-c2ccnc(NCCc3ccccc3)c2)c1"
0

# lookup: %Inh of CCCc1ccc(S(=O)(=O)NC2CCN(c3ccnc(Nc4ccc(F)cc4)n3)C2)cc1 (stereo not shown)
0

# lookup: %Inh of "COc1cc2ncnc(Nc3ccc4nc(-c5ccccc5)[nH]c4c3)c2cc1OC.Cl"
0

# lookup: %Inh of "Cc1ccc(-c2cc(-c3c[nH]nc3-c3ccccn3)ccn2)cc1"
0

# lookup: %Inh of "O=S(=O)(c1ccc(-c2ccnc3[nH]ccc23)cc1)N1CCCC1"
0

# lookup: %Inh of "Cn1ccc2ncnc(Oc3ccc(Nc4nc5ccccc5[nH]4)cc3)c21"
0

# lookup: %Inh of "O=c1cc(N2CCOCC2)nc2n(Cc3cccc(Cl)c3Cl)ccn12"
0

* * *

# Tested on: TIE2
# Construct: gene TEK
# conditions: concentration: 1 μM, replicates: in singlicate; n = 1
Property: %Inh; scope: individual compounds

Worked cases, answers included:
[
  {
    "compound": "Cc1cccc(-c2nc(Nc3ccc4[nH]ncc4c3)c3ccccc3n2)n1 [GW857175]",
    "%Inh": "49%"
  },
  {
    "compound": "CCn1c(-c2ccccn2)nc2cnccc21 [SB-736398]",
    "%Inh": "0%"
  },
  {
    "compound": "CC(C)(C)c1ccc(C(=O)Nc2cn3cc(Cl)ccc3n2)cc1",
    "%Inh": "13%"
  }
]

Shifting focus to the compound that follows.
# lookup: %Inh of COc1ccccc1CNC(=O)c1cc(C(=O)c2ccccc2C)c[nH]1 [GSK364507]
0%

* * *

# Tested on: GAK
# conditions: concentration: 1 μM, replicates: in singlicate; n = 1
experimental_endpoint: %Inh (%)
Numeric answer only, unit % assumed.

Worked cases, answers included:
[
  {
    "given_smiles": "COc1cc2ncnc(Nc3ccc4nc(-c5ccccc5)[nH]c4c3)c2cc1OC.Cl",
    "%Inh / %": 68
  },
  {
    "given_smiles": "Cc1cccc(-c2nc(Nc3ccncc3)c3ccccc3n2)n1",
    "%Inh / %": 0
  },
  {
    "given_smiles": "COc1ccc(Nc2nccc(-c3cccc(NC(=O)c4cc5cc(F)ccc5[nH]4)c3)n2)cc1",
    "%Inh / %": 49
  },
  {
    "given_smiles": "O=C(Nc1ccccc1)Nc1cccc(Oc2ccc3nccn3n2)c1",
    "%Inh / %": 0
  },
  {
    "given_smiles": "Cc1cccc(-c2nc(C)cc(Nc3ccncc3)n2)n1",
    "%Inh / %": 0
  },
  {
    "given_smiles": "Cn1ccc2ncnc(Oc3ccc(Nc4nc5ccccc5[nH]4)cc3)c21",
    "%Inh / %": 0
  }
]

# lookup: %Inh of "COc1cccc(-c2cc(-c3c[nH]nc3-c3ccccn3)ccn2)c1"
75
